The entries that follow carry pIC50 values tested on Vascular endothelial growth factor receptor 2 (Homo sapiens), drawn from several published reports.
pIC50: −log10 of the molar value.
Entry class follows pIC50: c1 = under 6, c2 = from 6 up to 7, c3 = 7 and over

Worked examples, 7 compounds total:
>  <COMPOUND>
COc1cc2ncnc(Nc3cc(O)c(C)cc3F)c2cc1OC

>  <GROUP LABEL>
c3

$$$$
>  <COMPOUND>
CCN(CC)CCN1Cc2[nH]c(/C=C3\C(=O)Nc4ccccc43)c(C)c2C1=O

>  <GROUP LABEL>
c3

$$$$
>  <COMPOUND>
CNC(=O)c1ccccc1Sc1ccc2c(N=Nc3[nH]c(C)cc3C)n[nH]c2c1

>  <GROUP LABEL>
c2

$$$$
>  <COMPOUND>
CCNC(=S)NS(=O)(=O)c1ccc(NC(=O)CN2C(=O)CSC2=O)cc1

>  <GROUP LABEL>
c2

$$$$
>  <COMPOUND>
COc1cc2ncnc(Nc3cccc(N)c3)c2cc1OC

>  <GROUP LABEL>
c1

$$$$
>  <COMPOUND>
CC(=O)OC1COC(n2cc(COc3ccc4c(-c5ccccc5)cc(=O)oc4c3)nn2)C(OC(C)=O)C1OC(C)=O (stereo not drawn)

>  <GROUP LABEL>
c1

$$$$
>  <COMPOUND>
CC(C)c1cccc(NC(=O)Nc2ccc(-c3ccc4c(=O)[nH]cnc4c3)cc2)c1

>  <GROUP LABEL>
c3

$$$$

Next compound, please.
Enquiry: Band of Cc1ccc(Nc2cc(Oc3ccc4[nH]ccc4c3)ncn2)cc1S(N)(=O)=O ?
Return: c3

====

The entries that follow carry pIC50 values tested on Vascular endothelial growth factor receptor 2 (Homo sapiens), drawn from several published reports.
Here pIC50 is given on a logarithmic scale as minus log10 of the concentration in mol/L.

>  <LINE NOTATION>
c1cc(Nc2ccc3[nH]ccc3c2)nc(Nc2ccc(OCCCCN3CCOCC3)cc2)n1

>  <pIC50>
6.89

$$$$

Enquiry: Identify pIC50 associated with the molecule COc1cc2ncnc(Nc3cc(O)ccc3Cl)c2cc1OC
Return: 7.15

Enquiry: Identify pIC50 associated with the molecule CNC(=O)c1ccccc1Sc1ccc2c(N=Nc3cc(C)n(C)c3C)n[nH]c2c1
Return: 6.80

Enquiry: Identify pIC50 associated with the molecule CN1CCc2sc3nc(-c4ccc(Cl)cc4)[nH]c(=O)c3c21
Return: 6.90

====

The entries that follow carry IC50 values tested on Vascular endothelial growth factor receptor 2 (Homo sapiens), drawn from several published reports.
Entry class follows IC50: group A: < 100 nM; group B: ≥ 100 nM and < 1000 nM; group C: ≥ 1000 nM

>  <COMPOUND>
Cc1ccc(Nc2nccc(N(C)c3ccc4[nH]ccc4c3)n2)cc1S(N)(=O)=O

>  <GROUP LABEL>
group A

$$$$
>  <COMPOUND>
O=C(CN1C(=O)CSC1=O)Nc1ccc(S(=O)(=O)NC(=S)NC2CCCCC2)cc1

>  <GROUP LABEL>
group B

$$$$
>  <COMPOUND>
COc1cc(Nc2nccc(Nc3ccc4[nH]ccc4c3)n2)cc(N2CCOCC2)c1

>  <GROUP LABEL>
group A

$$$$
>  <COMPOUND>
N=C(N)NS(=O)(=O)c1ccc(N=c2[nH]c3nc4ccccc4nc3s2)cc1

>  <GROUP LABEL>
group B

$$$$
>  <COMPOUND>
O=S(=O)(Nc1ncccn1)c1ccc(N=c2[nH]c3nc4ccccc4nc3s2)cc1

>  <GROUP LABEL>
group B

$$$$
>  <COMPOUND>
COc1cc(NS(=O)(=O)c2ccc(N=c3[nH]c4nc5ccccc5nc4s3)cc2)nc(OC)n1

>  <GROUP LABEL>
group B

$$$$

Enquiry: Band of CCNC(=S)NS(=O)(=O)c1ccc(NC(=O)CN2C(=O)SC(=Cc3ccccc3)C2=O)cc1 ?
Return: group B

Enquiry: Band of CCOC(=O)CSc1nc2cc(OC)c(OC)cc2c(=O)n1Cc1ccccc1 ?
Return: group C
